test: AUC (0 to t) in Beagle dog at […], po; type: ADME, organism-based, Canis lupus familiaris; set-up: dose 1.5 mg/kg, route po; settings: in vivo
RESULT_TYPE: AUC(0-t) (ng·h/mL)
Reply numerically in ng·h/mL, unit not repeated.

-- ask # query: AUC(0-t) of entry O=C(Nc1ccc(N2CCNCC2)cc1)c1n[nH]cc1Nc1cc(Oc2ccccc2)ncn1
-- reply 762

----------
assay: Half life in Beagle dog at […], po; type: ADME, organism-based, Canis lupus familiaris; details: in vivo, dose 1.5 mg/kg
RESULT_TYPE: half-life (h)
Write the number in h without appending the unit.

-- ask What measured half-life goes with O=C(Nc1ccc(N2CCNCC2)cc1)c1n[nH]cc1Nc1cc(Oc2ccccc2)ncn1 ?
-- reply 11.1
